Could you please report measured Max Plateau for the items listed next?
system: alpha-MyHC; experiment: alpha-MyHC cytoblot in neonatal rat ventricular myocytes (NRVM); type: cell-based; details: Table 1, 72 hours, fitted maximum, percent fraction of low control (vehicle), in %
Please state the value as a number alone, without comment.

Return reported Max Plateau for target or system alpha-MyHC, item CCC(=O)C1=C(CC)Nc2sc(C(=O)c3ccc(Cl)c(Cl)c3)c(N)c2C1c1cccc2ccccc12 (stereo not shown) [Compound 85] .
105.90

# assay system alpha-MyHC: give Max Plateau of CCC(=O)C1=C(CC)Nc2sc(C(=O)c3ccccc3Cl)c(N)c2C1c1ccccc1 (stereo not shown) [Compound 82]
245.96

Determine reported Max Plateau for CC(=O)C1=C(C)Nc2sc(C(=O)c3ccc(Cl)c(Cl)c3)c(N)c2C1c1cc(F)cc(F)c1 (stereo not shown) [Compound 55] ; test system: alpha-MyHC.
229.93

Give alpha-MyHC Max Plateau for the following compound: CC(=O)C1=C(C)Nc2sc(C(=O)c3ccccc3)c(N)c2C1c1ccccc1F (stereo not shown) [Compound 24]
260.35

Specify the recorded Max Plateau for CC(=O)C1=C(C)Nc2sc(C(=O)c3cccc(F)c3)c(N)c2C1c1ccccc1 (stereo not shown) [Compound 61] , system: alpha-MyHC.
230.65

Given CCC(=O)C1=C(CC)Nc2sc(C(=O)c3ccc(Cl)c(Cl)c3)c(N)c2C1c1ccccc1Cl (stereo not shown) [Compound 53] , report its Max Plateau on alpha-MyHC.
259.43

Give the observed Max Plateau of CCCC(=O)C1=C(CCC)Nc2sc(C(=O)c3cc(Cl)ccc3Cl)c(N)c2C1c1ccccc1F (stereo not shown) [Compound 92] for alpha-MyHC.
189.00

For alpha-MyHC, give the measured Max Plateau of the entry CC(=O)C1=C(C)Nc2sc(C(=O)c3ccc(C)c(C)c3)c(N)c2C1c1ccccc1 (stereo not shown) [Compound 8]
172.29

Please respond with reported Max Plateau (system alpha-MyHC) for CCC(=O)C1=C(CC)Nc2sc(C(=O)c3ccccc3)c(N)c2C1c1cc(F)cc(F)c1 (stereo not shown) [Compound 105] .
273.18

Report Max Plateau under test system alpha-MyHC for CCC(=O)C1=C(CC)Nc2sc(C(=O)c3ccc(F)c(F)c3)c(N)c2C1c1ccccc1 (stereo not shown) [Compound 72] .
223.99

Supply Max Plateau measured with alpha-MyHC for CCC(=O)C1=C(CC)Nc2sc(C(=O)c3ccc(Cl)c(Cl)c3)c(N)c2C1c1cccc(F)c1 (stereo not shown) [Compound 84] .
242.72

Report value: Max Plateau, system: alpha-MyHC, compound: CCC(=O)C1=C(CC)Nc2sc(C(=O)c3cccc(F)c3)c(N)c2C1c1ccccc1 (stereo not shown) [Compound 49]
299.18

Enter recorded Max Plateau with alpha-MyHC for CCC(=O)C1=C(CC)Nc2sc(C(=O)c3cc(C(F)(F)F)cc(C(F)(F)F)c3)c(N)c2C1c1ccccc1 (stereo not shown) [Compound 73] here.
205.27

Using alpha-MyHC as the test system, report measured Max Plateau of CCCC(=O)C1=C(CCC)Nc2sc(C(=O)c3ccc(Cl)c(Cl)c3)c(N)c2C1c1ccccc1 (stereo not shown) [Compound 86] .
131.26

Please report Max Plateau with alpha-MyHC for item Nc1c(C(=O)c2ccccc2)sc2c1C(c1ccccc1)C(C(=O)c1ccccc1)=C(c1ccccc1)N2 (stereo not shown) [Compound 30] .
100.00

Give measured Max Plateau for CC(=O)C1=C(C)Nc2sc(C(=O)c3ccc(Cl)c(Cl)c3)c(N)c2C1c1ccc(O)cc1 (stereo not shown) [Compound 23] (alpha-MyHC).
277.53
